List of IC80 values.
- MEASURED_ON: Intercellular adhesion molecule (ICAM-1), Integrin alpha-L/beta-2 (Homo sapiens) (UniProt P20701+P05362+P05107)
- STATED_CONDITIONS: JY-8
- Description: 80% inhibition of JY-8 cell adhesion to ICAM-1 via leukocyte function-associated antigen-1 (LFA-1) withouot serum
MEASURED_ENDPOINT: IC80 (µM)

COMPOUND	READING
O=C(O)C1CCCN(c2ccccc2Sc2ccc(C3CC3C(=O)NCCCN3CCCC3=O)c(Cl)c2Cl)C1 (stereo in doubt; 30)	0.019
CC(C)c1ccccc1Sc1ccc(C2CC2C(=O)N2CCC(C(=O)O)CC2)c(Cl)c1Cl (stereo in doubt; 18a)	0.054
CC(C)c1ccccc1Sc1ccc(C2CC2C(=O)NCCC(=O)O)c(Cl)c1Cl (stereo in doubt; 14a)	0.054
CC(C)c1ccccc1Sc1ccc(C2CC2C(=O)NCCCN2CCCC2=O)c(Cl)c1Cl (stereo in doubt; 12a)	0.063

====

- MEASURED_ON: Intercellular adhesion molecule (ICAM-1), Integrin alpha-L/beta-2 (Homo sapiens) (UniProt P20701+P05362+P05107)
- STATED_CONDITIONS: JY-8
- Description: 70% inhibition of JY-8 cell adhesion to ICAM-1 via leukocyte function-associated antigen-1 (LFA-1) without serum
The threshold is 40 nM. Values of IC70 beneath it are tagged satisfied; values meeting or exceeding it are tagged not satisfied.

COMPOUND	DISCRETE_LABEL
CC(C)c1ccccc1Sc1ccc(C2CC2C(=O)N2CCC(C(=O)O)CC2)c(Cl)c1Cl (stereo in doubt; 18a)	satisfied
O=C(O)C1CCCN(c2ccccc2Sc2ccc(C3CC3C(=O)NCCCN3CCCC3=O)c(Cl)c2Cl)C1 (stereo in doubt; 30)	satisfied
CC(C)c1ccccc1Sc1ccc(C2CC2C(=O)N2CCCC(C(=O)O)C2)c(Cl)c1Cl (stereo in doubt; 17a)	satisfied
O=C(O)C1CCCN(c2ccccc2Sc2ccc(C3CC3C(=O)NCCCN3CCCC3=O)c(Cl)c2Cl)C1 (stereo in doubt; 27)	satisfied
CC(C)c1ccccc1Sc1ccc(C2CC2C(=O)N2CCCCC2C(=O)O)c(Cl)c1Cl (stereo in doubt; 16a)	not satisfied
O=C(O)C1CCCN(c2ccccc2Sc2ccc(C3CC3C(=O)NCCCN3CCCC3=O)c(Cl)c2Cl)C1 (stereo in doubt; 29)	not satisfied
